Values compiled from ChEMBL document CHEMBL3124791.

Assay: Cytotoxicity against human KBVIN cells by SRB assay
Format: functional
Record form. Attribute: log10(GI50). Fill in for each entry.
Quick note: numbers are log10 of GI50, with nM as the unit.

Q: Fill blank: measured log10(GI50) of the compound COc1ccc2c(c1)CCCN(c1nc(Cl)nc3ccccc13)C2 is ____.
Result: 3.74

Q: # query: log10(GI50) of entry COc1ccc2c(c1)C(=O)CCN2c1nc(Cl)nc2ccccc12
Result: 1.52

Q: Give its log10(GI50) value. Item: CC(=O)O[C@H]1C(=O)[C@@]2(C)[C@H]([C@H](OC(=O)c3ccccc3)[C@]3(O)C[C@H](OC(=O)[C@H](O)[C@@H](NC(=O)c4ccccc4)c4ccccc4)C(C)=C1C3(C)C)[C@]1(OC(C)=O)CO[C@@H]1C[C@@H]2O [PACLITAXEL]
Result: 3.08

Q: Which log10(GI50) reading was recorded for the compound Cc1ccc2c(c1)CCCN2c1nc(Cl)nc2ccccc12 ?
Result: 1.66

Q: # query: log10(GI50) of entry COc1ccc2c(c1)CCCCN2c1nc(C)nc2ccccc12
Result: 1.30

Q: # get_value(readout='log10(GI50)', item= COc1ccc2c(c1)C(=O)CCN2c1nc(C)nc2ccccc12 )
Result: 1.32

Q: Suppose we examine the compound COc1ccc2c(c1)CCCN(c1nc(C)nc3ccccc13)C2 ; what log10(GI50) value has been reported?
Result: 4.17

Q: For the compound COc1ccc2c(c1)C(O)CCN2c1nc(C)nc2ccccc12 (configuration not stated) , what log10(GI50) is on record?
Result: 1.23

Q: What log10(GI50) value was documented for this compound, COc1ccc2c(c1)N(C)C(=O)CN2c1nc(C)nc2ccccc12 ?
Result: 1.40

Q: Entry under review: Cc1ccc2c(c1)CCCN2c1nc(C)nc2ccccc12 . Reported log10(GI50)?
Result: 2.25

Q: Query (compound): COc1ccc2c(c1)NC(=O)CN2c1nc(C)nc2ccccc12 ; field requested: log10(GI50)
Result: 0.34

Q: Entry COc1ccc2c(c1)CCN2c1nc(Cl)nc2ccccc12 has what log10(GI50)?
Result: 2.29

Q: Look up log10(GI50) for this compound: COc1ccc2c(c1)OCCN2c1nc(C)nc2ccccc12
Result: 2.23

Q: I'd like to know its log10(GI50). The compound in question is COc1ccc2c(c1)OCCN2c1nc(Cl)nc2ccccc12
Result: 2.29

Q: Consider the compound COc1ccc2c(c1)CCCCN2c1nc(Cl)nc2ccccc12 and give its measured log10(GI50).
Result: 2.29

Q: Given the entry COc1ccc2c(c1)CCN2c1nc(C)nc2ccccc12 , report its measured log10(GI50).
Result: 2.33

Q: Param item = Cc1nc(N2CCCc3cc(Br)ccc32)c2ccccc2n1 ; retrieve measured log10(GI50).
Result: 2.23

---

Molecular target: Tubulin (Homo sapiens) (UniProt P68371+Q9H4B7+P0DPH7+P68366+Q13509+Q71U36+P04350+Q3ZCM7+P07437+P68363+Q9BQE3+Q6PEY2+Q13885+Q9BVA1+Q9BUF5)
Test: Displacement of [3H]colchine from tubulin (unknown origin) at 1 uM after 10 mins
Format: protein-complex assay
Endpoint label: inhibition (%)
The response must be a number in % with no trailing unit.

Q: Recorded inhibition of COc1ccc2c(c1)CCCCN2c1nc(C)nc2ccccc12 , please.
Result: 46

Q: What value of measured inhibition is listed for COc1ccc2c(c1)N(C)C(=O)CN2c1nc(C)nc2ccccc12 ?
Result: 82

Q: Recorded inhibition of COc1ccc2c(c1)C(O)CCN2c1nc(C)nc2ccccc12 (stereo not given) , please.
Result: 75

Q: Which inhibition value is on record for COc1ccc2c(c1)NC(=O)CN2c1nc(C)nc2ccccc12 ?
Result: 93

Q: Consider the molecule shown here: COc1ccc2c(c1)C(=O)CCN2c1nc(C)nc2ccccc12 What is its recorded inhibition?
Result: 56

---

For each record, write down the corresponding pIC50.
Molecular target: Tubulin
Test: Inhibition of tubulin (unknown origin) polymerization incubated for 15 mins prior to GTP addition measured after 20 mins by turbidimetry
Just so you know, pIC50 here is -log10 of the concentration in molar units; reply with that number alone.

Q: # value lookup — system Tubulin, readout pIC50, item COc1ccc2c(c1)C(O)CCN2c1nc(C)nc2ccccc12 (centres undefined)
Result: 6.01

Q: Param readout= pIC50; system= Tubulin; entry= COc1ccc2c(c1)C(=O)CCN2c1nc(C)nc2ccccc12 ; returns value.
Result: 6.03

Q: // fetch Tubulin pIC50 for COc1ccc2c(c1)CCCCN2c1nc(C)nc2ccccc12
Result: 6.06

Q: Quick check: pIC50 on Tubulin, item COc1ccc2c(c1)N(C)C(=O)CN2c1nc(C)nc2ccccc12 ?
Result: 5.89

---

System: KB
Assay: Cytotoxicity against human KB cells by SRB assay
Format: functional
Endpoint label: GI50 (nM)
The answer is to be given in nM; state only the numeric part.

Q: Query GI50 on KB for COc1ccc2c(c1)CCN2c1nc(Cl)nc2ccccc12
Result: 227

Q: Requested read-out GI50, target or system KB, entry COc1ccc2c(c1)N(C)C(=O)CN2c1nc(C)nc2ccccc12
Result: 17

Q: Give recorded GI50 with KB for the following molecule: COc1ccc2c(c1)CCCCN2c1nc(C)nc2ccccc12
Result: 19
